Test settings: in acetone, 278.15 K
Readout name: solubility (mole fraction)
Hey, just send me the number, nothing else.

Lookup: Answer with the recorded solubility (mole fraction) of O=C1CCC(=O)CC1 only.
Found: 0.177

* * *

Test settings: in methyl acetate, 283.15 K
Readout name: solubility (mole fraction)
Write the number on its own, no unit after it.

Lookup: Answer with reported solubility (mole fraction) of O=C1CCC(=O)CC1
Found: 0.188

* * *

Test settings: in methyl acetate, 293.15 K
Readout name: solubility (mole fraction)
Number only, no unit.

Lookup: Consider the molecule O=C1CCC(=O)CC1 . State its measured solubility (mole fraction).
Found: 0.27

* * *

Test settings: in n-propanol, 308.15 K
Readout name: solubility (mole fraction)
Please reply with the value in numeric form only.

Lookup: Supply recorded solubility (mole fraction) for O=C1CCC(=O)CC1 here.
Found: 0.157

* * *

Test settings: in methyl acetate, 288.15 K
Readout name: solubility (mole fraction)
The answer should be written as a number, with no unit following it.

Lookup: Using the record for O=C1CCC(=O)CC1 , state its measured solubility (mole fraction).
Found: 0.227

* * *

Test settings: in n-propanol, 313.15 K
Readout name: solubility (mole fraction)
Hey, just send me the number, nothing else.

Lookup: Consider the compound O=C1CCC(=O)CC1 and give its recorded solubility (mole fraction).
Found: 0.24

* * *

Test settings: in cyclohexane, 283.15 K
Readout name: solubility (mole fraction)

Lookup: Assign solubility (mole fraction) to the following record: O=C1CCC(=O)CC1
Found: 0.000676

* * *

Test settings: in isopropanol, 308.15 K
Readout name: solubility (mole fraction)
Reply with the value as a number alone.

Lookup: Note down solubility (mole fraction) recorded for O=C1CCC(=O)CC1
Found: 0.254

* * *

Test settings: in acetone, 283.15 K
Readout name: solubility (mole fraction)
Give the value as a plain number.

Lookup: Could you please provide reported solubility (mole fraction) for O=C1CCC(=O)CC1 ? Thanks!
Found: 0.21

* * *

Test settings: in methyl acetate, 308.15 K
Readout name: solubility (mole fraction)
Returns: the value as a bare number; no unit string appended.

Lookup: Tell us which solubility (mole fraction) value is on record for O=C1CCC(=O)CC1
Found: 0.441

* * *

Test settings: in cyclohexane, 313.15 K
Readout name: solubility (mole fraction)

Lookup: Tell me measured solubility (mole fraction) for O=C1CCC(=O)CC1 please.
Found: 0.00293

* * *

Test settings: in ethanol, 308.15 K
Readout name: solubility (mole fraction)

Lookup: Quickly give me recorded solubility (mole fraction) for O=C1CCC(=O)CC1
Found: 0.265

* * *

Test settings: in ethanol, 298.15 K
Readout name: solubility (mole fraction)
The reply should be a number, written without any unit.

Lookup: In one line, give reported solubility (mole fraction) of the entry O=C1CCC(=O)CC1 .
Found: 0.121

* * *

Test settings: in ethyl acetate, 308.15 K
Readout name: solubility (mole fraction)
# output: bare number, no unit

Lookup: Given O=C1CCC(=O)CC1 , respond with its solubility (mole fraction).
Found: 0.332

* * *

Test settings: in isopropanol, 313.15 K
Readout name: solubility (mole fraction)

Lookup: Consider the compound O=C1CCC(=O)CC1 and give its recorded solubility (mole fraction).
Found: 0.36

* * *

Test settings: in ethyl acetate, 293.15 K
Readout name: solubility (mole fraction)
Format: numeric value only, no unit, no commentary.

Lookup: Return solubility (mole fraction) for the following molecule: O=C1CCC(=O)CC1
Found: 0.179

* * *

Test settings: in acetonitrile, 303.15 K
Readout name: solubility (mole fraction)

Lookup: Please list solubility (mole fraction) recorded for the molecule O=C1CCC(=O)CC1
Found: 0.434

* * *

Test settings: in n-butanol, 278.15 K
Readout name: solubility (mole fraction)
Provide a numeric answer; units are not to be included.

Lookup: Identify measured solubility (mole fraction) associated with O=C1CCC(=O)CC1
Found: 0.0113

* * *

Test settings: in ethanol, 283.15 K
Readout name: solubility (mole fraction)
Format: numeric value only, no unit, no commentary.

Lookup: Return solubility (mole fraction) for the following compound: O=C1CCC(=O)CC1
Found: 0.0301

* * *

Test settings: in n-propanol, 288.15 K
Readout name: solubility (mole fraction)
Answer with a number only.

Lookup: Answer with the recorded solubility (mole fraction) of O=C1CCC(=O)CC1 only.
Found: 0.0253

* * *

Test settings: in n-propanol, 283.15 K
Readout name: solubility (mole fraction)

Lookup: Complete the entry with solubility (mole fraction) for O=C1CCC(=O)CC1
Found: 0.0162

* * *

Test settings: in acetonitrile, 308.15 K
Readout name: solubility (mole fraction)
A bare number is all that is needed in reply.

Lookup: Determine its reported solubility (mole fraction): O=C1CCC(=O)CC1
Found: 0.481

* * *

Test settings: in methanol, 298.15 K
Readout name: solubility (mole fraction)
Please give only the number in your answer, with no unit.

Lookup: Report measured solubility (mole fraction); entry is O=C1CCC(=O)CC1
Found: 0.266

* * *

Test settings: in acetonitrile, 278.15 K
Readout name: solubility (mole fraction)
Number only, please.

Lookup: Return solubility (mole fraction) for the following compound: O=C1CCC(=O)CC1
Found: 0.241

* * *

Test settings: in n-butanol, 298.15 K
Readout name: solubility (mole fraction)
Respond with the number and no other words.

Lookup: Please supply the value of reported solubility (mole fraction) for the item O=C1CCC(=O)CC1
Found: 0.0654

* * *

Test settings: in acetone, 303.15 K
Readout name: solubility (mole fraction)
Reply with just the number.

Lookup: Give recorded solubility (mole fraction). O=C1CCC(=O)CC1
Found: 0.391

* * *

Test settings: in methanol, 293.15 K
Readout name: solubility (mole fraction)
Keep it simple and answer with nothing but the number.

Lookup: Provide one value: measured solubility (mole fraction) of O=C1CCC(=O)CC1
Found: 0.221

* * *

Test settings: in ethanol, 288.15 K
Readout name: solubility (mole fraction)

Lookup: Look up and report measured solubility (mole fraction) for this entry: O=C1CCC(=O)CC1
Found: 0.0479

* * *

Test settings: in cyclohexane, 288.15 K
Readout name: solubility (mole fraction)
API doc: respond with a numeric literal and nothing else, no unit.

Lookup: Specify reported solubility (mole fraction) for the compound shown: O=C1CCC(=O)CC1
Found: 0.000868

* * *

Test settings: in acetone, 298.15 K
Readout name: solubility (mole fraction)

Lookup: For the compound O=C1CCC(=O)CC1 , give its measured solubility (mole fraction) value.
Found: 0.338

* * *

Test settings: in n-butanol, 293.15 K
Readout name: solubility (mole fraction)

Lookup: Indicate its recorded solubility (mole fraction); the molecule in question is O=C1CCC(=O)CC1
Found: 0.0436

* * *

Test settings: in isopropanol, 303.15 K
Readout name: solubility (mole fraction)
Respond using a number only.

Lookup: Given O=C1CCC(=O)CC1 , respond with its solubility (mole fraction).
Found: 0.165

* * *

Test settings: in ethyl acetate, 303.15 K
Readout name: solubility (mole fraction)
Just the number, please, no unit attached.

Lookup: Look up solubility (mole fraction) of O=C1CCC(=O)CC1 and report it.
Found: 0.271

* * *

Test settings: in isopropanol, 283.15 K
Readout name: solubility (mole fraction)

Lookup: Entry O=C1CCC(=O)CC1 needs its solubility (mole fraction) filled in; supply it.
Found: 0.0274

* * *

Test settings: in methanol, 308.15 K
Readout name: solubility (mole fraction)
// no unit string in output, number only

Lookup: Report measured solubility (mole fraction); entry is O=C1CCC(=O)CC1
Found: 0.393

* * *

Test settings: in methanol, 303.15 K
Readout name: solubility (mole fraction)
Note: the reply should be a number with no unit written.

Lookup: Return solubility (mole fraction) (reported value) for this molecule: O=C1CCC(=O)CC1
Found: 0.324

* * *

Test settings: in methanol, 278.15 K
Readout name: solubility (mole fraction)
No unit in the answer, please; the number alone is enough.

Lookup: Note down solubility (mole fraction) recorded for O=C1CCC(=O)CC1
Found: 0.112

* * *

Test settings: in n-butanol, 288.15 K
Readout name: solubility (mole fraction)
When you answer, write just the number.

Lookup: Give the measured solubility (mole fraction) for O=C1CCC(=O)CC1
Found: 0.0293

* * *

Test settings: in ethanol, 313.15 K
Readout name: solubility (mole fraction)
Just the number, please, no unit attached.

Lookup: Report solubility (mole fraction) for O=C1CCC(=O)CC1
Found: 0.375

* * *

Test settings: in acetone, 308.15 K
Readout name: solubility (mole fraction)
// no unit string in output, number only

Lookup: Kindly indicate its recorded solubility (mole fraction). Item: O=C1CCC(=O)CC1
Found: 0.454

* * *

Test settings: in n-butanol, 308.15 K
Readout name: solubility (mole fraction)
API note: the answer field is a bare number with no unit suffix.

Lookup: Input O=C1CCC(=O)CC1 , output reported solubility (mole fraction).
Found: 0.145

* * *

Test settings: in methyl acetate, 298.15 K
Readout name: solubility (mole fraction)
Please give only the number in your answer, with no unit.

Lookup: Please supply the value of reported solubility (mole fraction) for the item O=C1CCC(=O)CC1
Found: 0.321

* * *

Test settings: in cyclohexane, 298.15 K
Readout name: solubility (mole fraction)

Lookup: Annotate the compound O=C1CCC(=O)CC1 with its measured solubility (mole fraction).
Found: 0.00141
